assay: Determination of the plasma concentration in mice after infusion; settings: mouse, intravenous, 10 mg/kg
value-type: concentration at 5 min (nM)
Give your result in nM as a bare value.

In: Query (compound): Cc1ccc(-c2ccc(CCC(=O)N[C@@H](CCC(=O)O)C(=O)N[C@@H](CCC(=O)O)C(N)=O)cc2)s1 ; field requested: concentration at 5 min
Out: 1000

----------
The following compounds are listed with their measured Ki values.
biological target: MMP-8h (Homo sapiens (Human), UniProt P22894); assay: Inhibition constant (Ki) on MMP-8h; type: biochemical; settings: read-out: Ki MMP-8h; human MMP-8
Sequence (P22894 101-467): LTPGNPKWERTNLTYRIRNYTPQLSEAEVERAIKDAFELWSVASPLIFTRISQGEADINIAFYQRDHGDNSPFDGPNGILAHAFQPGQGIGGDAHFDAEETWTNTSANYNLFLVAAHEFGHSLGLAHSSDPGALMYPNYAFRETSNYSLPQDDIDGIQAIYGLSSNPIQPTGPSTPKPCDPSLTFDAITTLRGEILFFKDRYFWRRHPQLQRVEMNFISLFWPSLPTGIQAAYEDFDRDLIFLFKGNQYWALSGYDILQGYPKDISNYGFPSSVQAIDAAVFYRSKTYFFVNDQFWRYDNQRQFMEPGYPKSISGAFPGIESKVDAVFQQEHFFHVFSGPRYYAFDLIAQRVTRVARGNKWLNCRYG

COc1cccc(-c2ccc(CCC(=O)N[C@@H](CCC(=O)O)C(=O)N[C@@H](CCC(=O)O)C(N)=O)cc2)c1 | > 1000 nM
NC(=O)CC[C@H](NC(=O)[C@H](CCC(=O)O)NC(=O)CCc1cc(-c2ccc(-c3ccccc3)cc2)no1)C(N)=O | 261 nM
NCCCC[C@H](NC(=O)CCc1ccc(-c2ccc(-c3ccccc3)cc2)cc1)C(=O)N[C@@H](CCC(=O)O)C(N)=O | > 1000 nM
C[C@H](NC(=O)[C@H](CCC(=O)O)NC(=O)CCc1ccc(-c2cccs2)cc1)C(N)=O | 62 nM
NC(=O)[C@H](CCC(=O)O)NC(=O)CCc1cc(-c2ccc(-c3cccc(Cl)c3)cc2)no1 | 119 nM
NC(=O)[C@H](CCC(=O)O)NC(=O)[C@H](CCC(=O)O)NC(=O)CCc1csc(-c2ccccc2)n1 | > 1000 nM

Could you now look at the following compound, please?
In: Query (compound): NC(=O)[C@H](Cc1c[nH]cn1)NC(=O)[C@H](CCC(=O)O)NC(=O)CCc1ccc(-c2ccc(-c3ccccc3)cc2)cc1 ; field requested: Ki
Out: 526 nM

----------
The following compounds are listed with their measured pKi values.
target: MMP-13h (Homo sapiens (Human)); test: Inhibition constant (Ki) on MMP-13h; type: biochemical; settings: read-out: Ki MMP-13h; human MMP-13
// pKi is dimensionless: -log10 of concentration (M)

C[C@H](NC(=O)CCc1ccc(-c2ccc(-c3ccccc3)cc2)cc1)C(=O)N[C@@H](CCC(=O)O)C(N)=O | 6.37

In: Query (compound): NC(=O)[C@H](CCC(=O)O)NC(=O)[C@H](CCC(=O)O)NC(=O)CCc1ccc(-c2ncccn2)cc1 ; field requested: pKi
Out: 6.19

In: Query (compound): NC(=O)[C@H](CCC(=O)O)NC(=O)[C@H](CCC(=O)O)NC(=O)CCc1ccc(-c2ccc(-c3ccccc3)s2)cc1 ; field requested: pKi
Out: 6.70

----------
target: UniProt:P45452; experiment: Inhibition constant (Ki) on MMP-13h; type: biochemical; settings: read-out: Ki MMP-13h; human MMP-13
value-type: log10 of Ki (log10 of the value in nM)
Please be aware that the numbers have been log10-transformed from Ki in nM.

Observe how each entry below is paired with its result.
O=C(O)CC[C@H](NC(=O)CCc1ccc(-c2ccc(-c3ccccc3)cc2)cc1)C(=O)N1CCC[C@@H](CC(=O)O)C1 | 1.23
NC(=O)CC[C@H](NC(=O)[C@H](CCC(=O)O)NC(=O)CCc1ccc(-c2cccs2)cc1)C(N)=O | 2.90
NC(=O)CC[C@H](NC(=O)[C@H](CCC(=O)O)NC(=O)CCc1cc(-c2ccc(-c3ccccc3)cc2)no1)C(N)=O | 1.69

In: Query (compound): NC(=O)[C@H](Cc1ccc(O)cc1)NC(=O)[C@H](CCC(=O)O)NC(=O)CCc1ccc(-c2ccc(-c3ccccc3)cc2)cc1 ; field requested: log10 of Ki
Out: 1.52

In: Query (compound): NC(=O)[C@H](CCC(=O)O)NC(=O)[C@H](CC(=O)O)NC(=O)CCc1ccc(-c2cc(-c3ccccc3)cs2)cc1 ; field requested: log10 of Ki
Out: 2.75
